- Test system: LCLC-97TM1
- assayProcedure: relative viability (nuclei count vs DMSO), 5 days (fraction); higher = more cells survive
- testConditions: first compound 0.253 µM

| molecule | relative viability |
| --- | --- |
| O=c1[nH]c2ccccc2n1C1CCN(CCCC(c2ccc(F)cc2)c2ccc(F)cc2)CC1 [Pimozide] + CS(=O)(=O)N1CCN(Cc2cc3nc(-c4cccc5[nH]ncc45)nc(N4CCOCC4)c3s2)CC1 [Pictilisib] (partner 1 µM) | 0.183 |
| O=c1[nH]c2ccccc2n1C1CCN(CCCC(c2ccc(F)cc2)c2ccc(F)cc2)CC1 [Pimozide] + C[C@]1(O)C[C@@H](c2nc(-c3ccc4ccc(-c5ccccc5)nc4c3)c3c(N)nccn32)C1 [Linsitinib] (partner 1 µM) | 0.166 |

----------
- Tested on: NCI-H2405
- assayProcedure: relative viability (nuclei count vs DMSO), 5 days (fraction); higher = more cells survive
- testConditions: first compound 15.81 µM
Criterion: relative viability strictly under 0.9. Met: y. Not met: n.

| compound | answerLabel |
| --- | --- |
| O=C(O)CCCCC(CCSCc1ccccc1)SCc1ccccc1 (stereo unspecified) [CPI-613] + C[C@@H](Oc1cc(-c2cnn(C3CCNCC3)c2)cnc1N)c1c(Cl)ccc(F)c1Cl [Crizotinib] (partner 1 µM) | y |
| O=C(O)CCCCC(CCSCc1ccccc1)SCc1ccccc1 (stereo unspecified) [CPI-613] + CS(=O)(=O)CCNCc1ccc(-c2ccc3ncnc(Nc4ccc(OCc5cccc(F)c5)c(Cl)c4)c3c2)o1 [Lapatinib] (partner 2 µM) | n |
| O=C(O)CCCCC(CCSCc1ccccc1)SCc1ccccc1 (stereo unspecified) [CPI-613] + CC(C)C[C@H](NC(=O)[C@H](Cc1ccccc1)NC(=O)c1cnccn1)B(O)O [Bortezomib] (partner 0.002 µM) | n |
| O=C(O)CCCCC(CCSCc1ccccc1)SCc1ccccc1 (stereo unspecified) [CPI-613] + NC(=O)Nc1cc(-c2cccc(F)c2)sc1C(=O)N[C@H]1CCCNC1 [AZD7762] (partner 0.2 µM) | y |

----------
Reported relative viability values for the following compounds.
- System: 201T
- assayProcedure: relative viability (nuclei count vs DMSO), 5 days (fraction); higher = more cells survive
- testConditions: first compound 50 µM

| compound | relative viability |
| --- | --- |
| O=C(O)CCCCC(CCSCc1ccccc1)SCc1ccccc1 (configuration not stated) [CPI-613] + CC(C)C[C@H](NC(=O)[C@H](Cc1ccccc1)NC(=O)c1cnccn1)B(O)O [Bortezomib] (partner 0.002 µM) | 1.09 |
| O=C(O)CCCCC(CCSCc1ccccc1)SCc1ccccc1 (configuration not stated) [CPI-613] + CS(=O)(=O)CCNCc1ccc(-c2ccc3ncnc(Nc4ccc(OCc5cccc(F)c5)c(Cl)c4)c3c2)o1 [Lapatinib] (partner 2 µM) | 0.953 |
| O=C(O)CCCCC(CCSCc1ccccc1)SCc1ccccc1 (configuration not stated) [CPI-613] + Nc1ncn([C@H]2C[C@H](O)[C@@H](CO)O2)c(=O)n1 [Decitabine] (partner 2 µM) | 0.841 |
| O=C(O)CCCCC(CCSCc1ccccc1)SCc1ccccc1 (configuration not stated) [CPI-613] + C[C@]1(O)C[C@@H](c2nc(-c3ccc4ccc(-c5ccccc5)nc4c3)c3c(N)nccn32)C1 [Linsitinib] (partner 1 µM) | 1.01 |
| O=C(O)CCCCC(CCSCc1ccccc1)SCc1ccccc1 (configuration not stated) [CPI-613] + Cc1cc(Nc2cc(N3CCN(C)CC3)nc(Sc3ccc(NC(=O)C4CC4)cc3)n2)n[nH]1 [Tozasertib] (partner 0.1 µM) | 0.8 |
| O=C(O)CCCCC(CCSCc1ccccc1)SCc1ccccc1 (configuration not stated) [CPI-613] + O=C(c1cc(Cc2n[nH]c(=O)c3ccccc23)ccc1F)N1CCN(C(=O)C2CC2)CC1 [Olaparib] (partner 8 µM) | 0.776 |
| O=C(O)CCCCC(CCSCc1ccccc1)SCc1ccccc1 (configuration not stated) [CPI-613] + CS(=O)(=O)N1CCN(Cc2cc3nc(-c4cccc5[nH]ncc45)nc(N4CCOCC4)c3s2)CC1 [Pictilisib] (partner 1 µM) | 0.667 |

src = the supplement of paper PMC10307832
